- system: T1, Aae Hfq (Aquifex aeolicus, UniProt O66512 1-80)
- T1 sequence: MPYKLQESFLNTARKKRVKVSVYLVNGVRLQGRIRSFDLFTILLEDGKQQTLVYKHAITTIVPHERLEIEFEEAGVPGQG
- assay-explanation: fluorescence polarization; no Mg2+; per hexamer; 4-parameter fit, Hill 2.2; FP: 50 mM Tris pH 8.0, 500 mM NaCl, 5 nM FAM-RNA, +/- 10 mM MgCl2, 45 min, room temperature
- reported-conditions: protein: recombinant; tags: 6xHis removed by thrombin; residual N-terminal G-2 S-1 H0; chain copies: 6; label: 5'-FAM; single strand
measurement-name: Kd (nM)

AAAAAAAAAAAAAAAAAA (ssRNA) [FAM-A18] ... 17.4
